Target: the molecule itself
Test: mass photometry; 100 nM protein diluted in PBS (pH 7.4), room temperature, 60 s acquisition, TwoMP mass photometer; monomer to dimer
experimental endpoint: stoichiometry N
One number for each entry.

query: Look up stoichiometry N of human ketohexokinase-A D15A (enzyme, ketohexokinase, splice isozyme A (KHK-A), human, with D15A; Expressed and purified as described for WT KHK-A; PDB 2HLZ is the wild-type parent; also called KHK-A D15A; source: E. coli BL21-CodonPlus-RIL, purified (Ni-NTA, Superdex 200 gel filtration)) QILCVGLVVLAVISLVDKYPKEDSEIRCLSQRWQRGGNASNSCTVLSLLGAPCAFMGSMAPGHVADFVLDDLRRYSVDLRYTVFQTTGSVPIATVIINEASGSRTILYYDRSLPDVSATDFEKVDLTQFKWIHIEGRNASEQVKMLQRIDAHNTRQPPEQKIRVSVEVEKPREELFQLFGYGDVVFVSKDVAKHLGFQSAEEALRGLYGRVRKGAVLVCAWAEEGADALGPDGKLLHSDAFPPPRVVDTLGAGDTFNASVIFSLSQGRSVQEALRFGCQVAGKKCGLQGFDGIV and report it.
result: 2
